tgt: Epidermal growth factor receptor (EGFR)(L858R)(T790M) (Homo sapiens, UniProt P00533, L858R/T790M)
Sequence (P00533 25-1210 T790M/L858R limits assumed): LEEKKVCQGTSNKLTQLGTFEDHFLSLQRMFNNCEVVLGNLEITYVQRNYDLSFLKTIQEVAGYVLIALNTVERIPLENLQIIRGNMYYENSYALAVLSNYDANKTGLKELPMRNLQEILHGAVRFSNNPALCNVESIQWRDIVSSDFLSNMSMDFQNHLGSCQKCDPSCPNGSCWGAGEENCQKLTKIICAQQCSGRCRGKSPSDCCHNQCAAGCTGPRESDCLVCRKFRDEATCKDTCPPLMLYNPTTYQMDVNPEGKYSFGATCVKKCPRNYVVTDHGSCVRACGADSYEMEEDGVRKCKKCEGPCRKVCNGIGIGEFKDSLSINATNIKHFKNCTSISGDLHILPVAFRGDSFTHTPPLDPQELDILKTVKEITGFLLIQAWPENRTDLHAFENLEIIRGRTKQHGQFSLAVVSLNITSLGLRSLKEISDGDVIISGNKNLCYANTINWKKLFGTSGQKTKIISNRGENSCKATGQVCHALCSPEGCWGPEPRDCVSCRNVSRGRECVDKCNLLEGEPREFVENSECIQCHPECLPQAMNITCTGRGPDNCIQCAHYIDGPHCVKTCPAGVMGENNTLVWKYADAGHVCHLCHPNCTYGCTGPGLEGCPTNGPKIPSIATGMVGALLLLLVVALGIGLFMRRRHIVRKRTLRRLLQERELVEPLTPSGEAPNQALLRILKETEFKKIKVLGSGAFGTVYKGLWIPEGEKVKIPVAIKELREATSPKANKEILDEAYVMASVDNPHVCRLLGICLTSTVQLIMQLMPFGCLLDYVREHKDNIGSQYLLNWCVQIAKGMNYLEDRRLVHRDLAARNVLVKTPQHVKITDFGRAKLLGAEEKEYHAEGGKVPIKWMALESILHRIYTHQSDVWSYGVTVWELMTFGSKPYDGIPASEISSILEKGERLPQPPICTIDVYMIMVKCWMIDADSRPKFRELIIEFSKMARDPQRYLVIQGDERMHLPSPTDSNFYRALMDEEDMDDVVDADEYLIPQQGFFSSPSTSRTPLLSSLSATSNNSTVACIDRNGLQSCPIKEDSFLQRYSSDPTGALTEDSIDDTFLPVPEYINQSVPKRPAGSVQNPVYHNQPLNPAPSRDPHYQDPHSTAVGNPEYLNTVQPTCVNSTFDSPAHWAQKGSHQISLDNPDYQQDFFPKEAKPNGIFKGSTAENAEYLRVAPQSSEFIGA
test description: Inhibitory Activity for EGFR (L858R/T790M) Kinase
Experimental: A 50 ng/μL EGFR (L858R/T790M, Carna) stock solution was diluted with a kinase buffer (50 mM HEPES, 10 mM MgCl2, 2 mM DTT, 1 mM EGTA, 0.01% Tween 20), and 6 μL of 1.67× working solution at 0.004175 ng/μL (final concentration: 0.0025 ng/μL) was added to each well. […]
pIC50: −log10 of the molar value.
metric name: pIC50

The following compounds have reported results that may help.
compound=Cc1cc2cc(n1)-c1cnn(C3CC3)c1OCCC[C@@H](C)CN1/C(=N/C2=O)Nc2cc(N[C@@H]3CCOC3)ccc21 measured=10.06
compound="Cc1cc2cc(n1)-c1cnn(C)c1OCCC[C@@H](C1CC1)CN1/C(=N/C2=O)Nc2ccc(NC3CC(N(C)C)C3)cc21 (stereo partly drawn)" measured=9.59
compound=Cc1cc2cc(n1)-c1cnn(C)c1OCCC[C@@H](C1CC1)CN1/C(=N/C2=O)Nc2ccc(N[C@@H]3CC[C@H](N(C)C)C3)cc21 measured=9.26

P. Cc1cc2cc(n1)-c1cnn(C)c1OCCC[C@@H](C1CC1)CN1/C(=N/C2=O)Nc2cc(N[C@H]3CC[C@@H](N(C)C)C3)ccc21
Q. Cc1cc2cc(n1)-c1cnn(C)c1OCCC[C@@H](C1CC1)CN1/C(=N/C2=O)Nc2ccc(N[C@H]3C[C@H](N(C)C)C3)cc21
R. Cc1cc2cc(n1)-c1cnn(C)c1OCCC[C@@H](C1CC1)CN1/C(=N/C2=O)Nc2cc(NC3CCN(C(C)C)CC3)ccc21
S. Cc1cc2cc(n1)-c1cnn(C)c1OCCC[C@@H](C1CC1)CN1/C(=N/C2=O)Nc2ccc(NC3CCCC3)cc21
Exam item: // smallest pIC50 at index 0, largest at the end Dear reader, please state the labels in the requested order.
Marked response: Q, P, S, R
(Q: 9.20, P: 10.03, S: 10.38, R: 10.64)

I. Cc1cc2cc(n1)-c1cnn(C)c1OCCC[C@@H](C1CC1)CN1/C(=N/C2=O)Nc2cc(NC3CC(N(C)C)C3)ccc21 (stereo partly drawn)
II. Cc1cc2cc(n1)-c1cnn(C)c1OCCC[C@@H](C1CC1)CN1/C(=N/C2=O)Nc2cc(NC(C)CN(C)C)ccc21 (stereo partly drawn)
III. Cc1cc2cc(n1)-c1cnn(C)c1OCCC[C@@H](C1CC1)CN1/C(=N/C2=O)Nc2cc(NC3CCC3)ccc21
IV. Cc1cc2cc(n1)-c1cnn(C)c1OCCC[C@@H](C1CC1)CN1/C(=N/C2=O)Nc2ccc(N[C@H]3CC[C@@H](N(C)C)C3)cc21
V. Cc1cc2cc(n1)-c1cnn(C)c1OCCC[C@@H](C1CC1)CN1/C(=N/C2=O)Nc2ccc(NC3CCN(C(C)C)CC3)cc21
Exam item: Falling order of pIC50, please. // respond by listing labels in the order requested
Marked response: III, V, II, IV, I
(III: 11.15, V: 10.77, II: 10.51, IV: 10.09, I: 9.21)

----------
tgt: Epidermal growth factor receptor (EGFR)(L858R)(T790M) (Homo sapiens, UniProt P00533, L858R/T790M)
test description: Inhibitory Activity for EGFR (L858R/T790M) Kinase
pIC50: −log10 of the molar value.
metric name: pIC50

P. Cc1cc2cc(n1)-c1cnn(C)c1OCCC[C@@H](C1CC1)CN1/C(=N/C2=O)Nc2ccc(N[C@H](C)CN3CCCCC3)cc21
Q. Cc1cc2cc(n1)-c1cnn(C)c1OCCC[C@@H](C1CC1)CN1/C(=N/C2=O)Nc2ccc(NCCCN3CCCCC3)cc21
R. Cc1cc2cc(n1)-c1cnn(C)c1OCCC[C@@H](C1CC1)CN1/C(=N/C2=O)Nc2cc(NC3CNC3)ccc21
S. Cc1cc2cc(n1)-c1cnn(C)c1OCCC[C@@H](C1CC1)CN1/C(=N/C2=O)Nc2cc(N[C@H]3CC[C@H](O)CC3)ccc21
T. Cc1cc2cc(n1)-c1cnn(C)c1OCCC[C@@H](C1CC1)CN1/C(=N/C2=O)Nc2cc(N[C@@H]3CC[C@H](N(C)C)C3)ccc21
Exam item: Arrange by pIC50, high to low. Put the labels in the requested order and list them out.
Marked response: R, Q, P, S, T
